These measurements were taken from patent US20240398813A1.

# target.of.assay: hyperactive mutant BKCa channels (hSlo G803D/N806K) stably expressed in AD 293 cells (Homo sapiens, UniProt Q12791, G856D/N859K)
# Sequence (Q12791 whole entry G856D/N859K): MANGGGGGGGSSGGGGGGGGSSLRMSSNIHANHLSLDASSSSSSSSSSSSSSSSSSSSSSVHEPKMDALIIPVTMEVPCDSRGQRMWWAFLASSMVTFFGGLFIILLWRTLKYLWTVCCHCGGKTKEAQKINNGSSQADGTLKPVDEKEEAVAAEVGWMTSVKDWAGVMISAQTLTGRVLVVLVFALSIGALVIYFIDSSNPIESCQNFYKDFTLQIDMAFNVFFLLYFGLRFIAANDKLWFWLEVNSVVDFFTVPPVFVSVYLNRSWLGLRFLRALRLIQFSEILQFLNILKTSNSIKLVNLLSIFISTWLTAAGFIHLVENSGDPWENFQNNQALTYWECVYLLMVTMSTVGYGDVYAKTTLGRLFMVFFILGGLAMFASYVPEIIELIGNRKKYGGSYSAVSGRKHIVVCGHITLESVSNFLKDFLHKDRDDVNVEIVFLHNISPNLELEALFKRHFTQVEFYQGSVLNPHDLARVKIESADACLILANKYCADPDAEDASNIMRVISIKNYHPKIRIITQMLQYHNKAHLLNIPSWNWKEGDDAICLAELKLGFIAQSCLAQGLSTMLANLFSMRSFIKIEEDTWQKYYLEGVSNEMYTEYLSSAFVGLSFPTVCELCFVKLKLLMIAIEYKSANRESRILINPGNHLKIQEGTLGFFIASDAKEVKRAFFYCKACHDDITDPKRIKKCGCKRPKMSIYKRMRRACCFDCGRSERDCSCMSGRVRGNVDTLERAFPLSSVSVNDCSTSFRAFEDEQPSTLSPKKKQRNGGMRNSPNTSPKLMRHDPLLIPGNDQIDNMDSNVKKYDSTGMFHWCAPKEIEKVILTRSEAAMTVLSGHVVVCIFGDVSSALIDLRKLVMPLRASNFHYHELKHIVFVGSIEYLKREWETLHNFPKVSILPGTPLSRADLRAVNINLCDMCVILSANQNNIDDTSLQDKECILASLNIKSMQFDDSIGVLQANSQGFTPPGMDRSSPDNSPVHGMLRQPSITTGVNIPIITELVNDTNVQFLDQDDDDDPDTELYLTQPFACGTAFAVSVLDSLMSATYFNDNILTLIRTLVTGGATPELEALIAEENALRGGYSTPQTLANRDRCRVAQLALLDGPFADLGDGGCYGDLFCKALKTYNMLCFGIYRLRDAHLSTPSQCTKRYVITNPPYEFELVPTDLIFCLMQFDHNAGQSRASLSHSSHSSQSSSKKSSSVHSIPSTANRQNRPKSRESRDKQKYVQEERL
# assay.text: Cell-based fluorescence assay (FluxOR Potassium Ion Channel Assay) of BKCa channel activation
# test.settings: fit of dose-response curve of initial rates; read-out: Apparent EC50 based on vi
pEC50: −log10 of the molar value.
Quick rule: pEC50 of at least 5 means yes (1), below that means no (0).

Field: example entries. Status: answers known.
# structure.string, assigned.category
measured = [
    ("O=C(Nc1cc(C(F)(F)F)cc(C(F)(F)F)c1)c1sc(=S)n2c1[nH]c(=O)c1cc(Br)ccc12", "no (0)"),
    ("Cc1cccc(NC(=O)c2sc(=S)n3c2[nH]c(=O)c2cc(Br)ccc23)c1", "yes (1)"),
    ("O=C(Nc1cccc(OC(F)(F)F)c1)c1sc(=S)n2c1[nH]c(=O)c1cc(Br)ccc12", "yes (1)"),
    ("COc1cccc(NC(=O)c2sc(=S)n3c2[nH]c(=O)c2cc(Br)ccc23)c1", "yes (1)"),
    ("O=C(Nc1cccc(Cl)c1)c1sc(=S)n2c1[nH]c(=O)c1cc(Br)ccc12", "yes (1)"),
]

Turning to the following compound.
q: Kindly determine if pEC50 recorded for O=C(Nc1cccc(F)c1)c1sc(=S)n2c1[nH]c(=O)c1cc(Br)ccc12 is above or exactly 5.
a: yes (1)

* * *

# target.of.assay: hyperactive mutant BKCa channels (hSlo G803D/N806K) stably expressed in AD 293 cells (Homo sapiens, UniProt Q12791, G856D/N859K)
# Construct: expressed in transfected cells
# assay.text: Cell-based fluorescence assay (FluxOR Potassium Ion Channel Assay) of BKCa channel activation
# test.settings: compounds at 5 μM; n=3; vehicle 0.26
metric.name: Activity (ΔRFU normalized by activities of LDD175)
Field format: numeric only.

Below are worked cases with known answers.
# structure.string, experimental.result
rows = [
    ("O=C(NCc1ccccc1Cl)c1sc(=S)n2c1[nH]c(=O)c1cc(Cl)ccc12", 0.60),
    ("Cc1ccc(CNC(=O)c2sc(=S)n3c2[nH]c(=O)c2cc(Br)ccc23)cc1", 0.76),
    ("COc1ccc(OC)c(NC(=O)c2sc(=S)n3c2[nH]c(=O)c2cc(C)ccc23)c1", 0.63),
    ("O=C(NCc1ccccc1Cl)c1sc(=S)n2c1[nH]c(=O)c1cc(Br)ccc12", 0.62),
]

Consider COc1ccccc1NC(=O)c1sc(=S)n2c1[nH]c(=O)c1cc3c(cc12)OCO3 . Its measured Activity (ΔRFU normalized by activities of LDD175) is 0.51

Consider CNC(=O)c1sc(=S)n2c1[nH]c(=O)c1ccc(Cl)cc12 . Its measured Activity (ΔRFU normalized by activities of LDD175) is 0.50

* * *

# target.of.assay: hyperactive mutant BKCa channels (hSlo G803D/N806K) stably expressed in AD 293 cells (Homo sapiens, UniProt Q12791, G856D/N859K)
# Construct: expressed in transfected cells
# assay.text: Cell-based fluorescence assay (FluxOR Potassium Ion Channel Assay) of BKCa channel activation
# Design: key: ratio of ΔRFU (RFU at 100 s − 20 s) to the same ΔRFU for vehicle
# test.settings: 6 μM; normalized by vehicle
Examples of molecules with documented Channel activity increase for 80 s (ΔRFU) at 6 μM follow.
Field format: numeric only.

Consider COc1cccc(NC(=O)c2sc(=S)n3c2[nH]c(=O)c2cc(Br)ccc23)c1 [Compound 204] . Its measured Channel activity increase for 80 s (ΔRFU) at 6 μM is 3.35

Consider O=C(NCc1ccccc1)c1sc(=S)n2c1[nH]c(=O)c1ccccc12 [Compound 5] . Its measured Channel activity increase for 80 s (ΔRFU) at 6 μM is 1.10

Consider O=C(Nc1cccc(Cl)c1)c1sc(=S)n2c1[nH]c(=O)c1cc(Br)ccc12 [Compound 207] . Its measured Channel activity increase for 80 s (ΔRFU) at 6 μM is 3.56
